# Tested on: human SGLT2 (Homo sapiens, UniProt P31639)
# Construct: A full-length cDNA clone expressing human SGLT2
# Sequence (P31639 whole entry): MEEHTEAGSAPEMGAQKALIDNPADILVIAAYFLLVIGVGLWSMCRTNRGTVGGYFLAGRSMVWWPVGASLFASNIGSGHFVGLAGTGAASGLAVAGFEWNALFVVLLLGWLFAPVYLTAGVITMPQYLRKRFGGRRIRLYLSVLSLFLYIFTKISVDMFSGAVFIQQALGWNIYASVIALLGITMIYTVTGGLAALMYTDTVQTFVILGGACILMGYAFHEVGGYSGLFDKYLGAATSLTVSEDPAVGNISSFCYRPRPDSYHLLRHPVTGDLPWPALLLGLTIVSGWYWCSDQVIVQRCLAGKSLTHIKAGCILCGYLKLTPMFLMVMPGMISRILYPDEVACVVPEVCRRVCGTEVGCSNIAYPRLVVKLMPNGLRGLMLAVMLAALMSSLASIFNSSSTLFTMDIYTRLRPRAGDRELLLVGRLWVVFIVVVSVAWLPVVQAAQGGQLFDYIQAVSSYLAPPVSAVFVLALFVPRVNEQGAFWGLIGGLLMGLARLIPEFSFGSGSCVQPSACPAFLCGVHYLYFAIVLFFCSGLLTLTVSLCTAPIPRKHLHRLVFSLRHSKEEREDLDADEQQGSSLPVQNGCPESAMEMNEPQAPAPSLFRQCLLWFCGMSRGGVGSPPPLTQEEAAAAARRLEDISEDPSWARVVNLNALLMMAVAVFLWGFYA
# Assay overview: Methyl-α-D-[U-14C]glucopyranoside uptake assay, SGLT2
# Assay type: cell-based
# Assay conditions: HEK293.ETN cells stably expressing human SGLT2; sodium-dependent uptake, 1.5 h incubation; read-out: IC50 SGLT2
pIC50: −log10 of the molar value.
Reported metric: pIC50

For CCc1ccc(Cc2cc3c(cc2Cl)C(OC)C[C@]32O[C@H](CO)[C@@H](O)[C@H](O)[C@H]2O)cc1 (stereo partly shown) [Compound BD] the molecule record lists pIC50 as > 6.00

Item: CCc1ccc(Cc2cc3c(cc2Cl)C(O)C[C@]32O[C@H](CO)[C@@H](O)[C@H](O)[C@H]2O)cc1 (stereo partly shown) [Compound BB] | pIC50: > 6.00

Sure, the documented pIC50 for CCc1ccc(Cc2cc3c(cc2Cl)CO[C@]32O[C@H](CNC(C)=O)[C@@H](O)[C@H](O)[C@H]2O)cc1 [Compound AM] is > 6.00

Field pIC50 (entry CCOc1ccc(Cc2cc3c(cc2Cl)CO[C@]32O[C@H](CO)[C@@H](O)[C@H](O)[C@H]2O)cc1 [Compound H] ) reads > 6.00

// pIC50 value for CCc1ccc(Cc2cc3c(cc2Cl)CO[C@]32O[C@H](CO)[C@@H](O)[C@H](O)[C@H]2O)cc1 [Compound K] : > 6.00

// recorded pIC50 for CCOc1ccc(Cc2ccc3c(c2)[C@]2(OC3)O[C@H](CO)[C@@H](O)[C@H](O)[C@H]2O)cc1 [Compound G] : > 6.00

Kindly note the recorded pIC50 for CCc1ccc(Cc2cc3c(cc2Cl)C(F)C[C@]32O[C@H](CO)[C@@H](O)[C@H](O)[C@H]2O)cc1 (stereo partly shown) [Compound BE] , which is > 6.00
